Molecular target: Urotensin-2 receptor (Rattus norvegicus, UniProt P49684)
Assay: Modulation of urotensin-2 receptor in Sprague-Dawley rat thoracic aortic ring assessed as urotensin-2 related peptide EC50 for induction of aortic ring contraction at 11 uM preincubated for 15 mins followed by urotensin-2 related peptide addition (Rvb = 13 nM)
Endpoint Label: EC50 (nM)
Output spec: scalar in nM, unitless text.

Qu. Note down EC50 recorded for NCCC[C@@H]1N[C@H](c2ccc(-c3ccccc3)cc2)c2[nH]c(C(=O)O)cc2N(CCc2ccc(O)cc2)C1=O
Ans. 8.1

---

What pEC50 was measured for each of the following?
Molecular target: Urotensin-2 receptor (Rattus norvegicus, UniProt P49684)
Assay: Modulation of urotensin-2 receptor in Sprague-Dawley rat thoracic aortic ring assessed as human urotensin-2 pEC50 for induction of aortic ring contraction at 10 uM preincubated for 15 mins followed by human urotensin-2 addition (Rvb = 8.71 +/- 0.08 no unit)
As a rule, pEC50 stands for the negative log10 of the concentration, concentration in M.

Qu. Report pEC50 for NCCCC[C@@H]1N[C@H](c2ccc3ccccc3c2)c2[nH]c(C(=O)O)cc2N(CCc2ccc(O)cc2)C1=O
Ans. 8.31

Qu. Determine its reported pEC50: NCCC[C@@H]1N=C(c2ccc3ccccc3c2)c2[nH]c(C(=O)O)cc2N(CCc2ccc(O)cc2)C1=O
Ans. 8.03

Qu. # return recorded pEC50 for entry NCCC[C@@H]1N[C@H](c2cccc3ccccc23)c2[nH]c(C(=O)O)cc2N(CCc2ccc(O)cc2)C1=O
Ans. 8.25

Qu. Specify measured pEC50 for NCCC[C@@H]1N=C(c2cccc3ccccc23)c2[nH]c(C(=O)O)cc2N(CCc2ccc(O)cc2)C1=O .
Ans. 8.59

---

Hi there, I'd appreciate the recorded EC50 for every entry that follows.
Target: Urotensin-2 receptor (Rattus norvegicus, UniProt P49684)
Test: Modulation of urotensin-2 receptor in Sprague-Dawley rat thoracic aortic ring assessed as human urotensin-2 EC50 for induction of aortic ring contraction at 10 uM preincubated for 15 mins followed by human urotensin-2 addition (Rvb = 1.9 nM)
Reply with just the number (in nM).

Qu. Kindly indicate its recorded EC50. Item: NCCC[C@@H]1N[C@H](c2cccc3ccccc23)c2[nH]c(C(=O)O)cc2N(CCc2ccc(O)cc2)C1=O
Ans. 5.7

Qu. Note EC50 for the compound shown: NCCC[C@@H]1N[C@@H](c2cccc3ccccc23)c2[nH]c(C(=O)O)cc2N(CCc2ccc(O)cc2)C1=O
Ans. 4.8

Qu. Supply measured EC50 of NCCCC[C@@H]1N[C@@H](c2ccc3ccccc3c2)c2[nH]c(C(=O)O)cc2N(CCc2ccc(O)cc2)C1=O in your reply.
Ans. 1.5

Qu. Provide only the value of recorded EC50 for NCCC[C@@H]1N=C(c2cccc3ccccc23)c2[nH]c(C(=O)O)cc2N(CCc2ccc(O)cc2)C1=O
Ans. 2.7

---

Target: Urotensin-2 receptor (Rattus norvegicus)
Sequence (P49684 whole entry): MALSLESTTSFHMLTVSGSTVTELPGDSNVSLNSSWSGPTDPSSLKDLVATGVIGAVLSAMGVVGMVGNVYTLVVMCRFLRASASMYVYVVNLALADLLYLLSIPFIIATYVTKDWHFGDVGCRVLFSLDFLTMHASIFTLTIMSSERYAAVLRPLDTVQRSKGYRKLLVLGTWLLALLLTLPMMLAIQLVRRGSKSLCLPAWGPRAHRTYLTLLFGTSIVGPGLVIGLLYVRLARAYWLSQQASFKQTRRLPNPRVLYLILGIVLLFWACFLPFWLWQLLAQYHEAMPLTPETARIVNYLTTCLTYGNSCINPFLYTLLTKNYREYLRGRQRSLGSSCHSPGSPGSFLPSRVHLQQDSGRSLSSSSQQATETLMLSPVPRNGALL
Assay: Modulation of urotensin-2 receptor in Sprague-Dawley rat thoracic aortic ring assessed as human urotensin-2 EC50 for induction of aortic ring contraction at 1 uM preincubated for 15 mins followed by human urotensin-2 addition (Rvb = 1.9 nM)
Endpoint Label: EC50 (nM)
Respond with the bare value in nM.

Qu. Give EC50 for the following compound: NCCCC[C@@H]1N[C@H](c2ccc(-c3ccccc3)cc2)c2[nH]c(C(=O)O)cc2N(CCc2ccc(O)cc2)C1=O
Ans. 4.5
